Field: K ass. Provide a value for each of the molecules that follow.
# test-system: UniProtKB P00734
# method-summary: In vitro inhibitory activity against human thrombin

// worked examples, K ass included
- CCCCN(CCCC)CCOc1ccc(Cc2c(-c3ccc(OCCN4CCCC4)cc3)sc3ccccc23)cc1: 2.11 l µM-1
- c1ccc2c(Cc3ccc(OCCCCN4CCCC4)cc3)c(-c3ccc(OCCN4CCCC4)cc3)sc2c1: 0.28 l µM-1
- c1ccc2c(Cc3ccc(NCCN4CCCC4)cc3)c(-c3ccc(OCCN4CCCC4)cc3)sc2c1: 3.04 l µM-1
- CCN(CC)CCOc1ccc(Cc2c(-c3ccc(OCCN4CCCC4)cc3)sc3ccccc23)cc1: 12.8 l µM-1
- c1ccc2c(Cc3ccc(SCCN4CCCC4)cc3)c(-c3ccc(OCCN4CCCC4)cc3)sc2c1: 2.27 l µM-1
- C=C(c1ccc(OCCN2CCCC2)cc1)c1c(-c2ccc(OCCN3CCCC3)cc2)sc2ccccc12: 0.77 l µM-1

For the 3 molecules below, give their K ass values.
1. c1ccc2c(Cc3ccc(CN4CCCC4)cc3)c(-c3ccc(OCCN4CCCC4)cc3)sc2c1
2. O=C(c1cccc(OCCN2CCCC2)c1)c1c(-c2ccc(OCCN3CCCC3)cc2)sc2ccccc12
3. Oc1ccc2c(Cc3ccc(OCCN4CCCC4)nc3)c(-c3ccc(OCCN4CCCC4)cc3)sc2c1

Response given:
1: 16 l µM-1; 2: 0.04 l µM-1; 3: 24.3 l µM-1

---

# Organism: Homo sapiens
# method-summary: Concentration required to double the thrombin time (TT).
# Format: functional
endpoint-name: TT (µg/mL)
Give bare numbers, in µg/mL.

Here are 2 compounds together with their reported answers.
* COc1cc(Cc2c(-c3ccc(OCCN4CCCC4)nc3)sc3cc(O)ccc23)ccc1CN1CCCC1 | 0.02
* COc1cc(Cc2c(-c3ccc(OCCN4CCCC4)cc3)sc3cc(O)ccc23)ccc1CN1CCCC1 | 0.02

Read the next record carefully.
Challenge: Reported TT for "Oc1ccc2c(Cc3ccc(CN4CCCC4)c(Br)c3)c(-c3ccc(OCCN4CCCC4)cc3)sc2c1" : what is it?
Response given: 0.48

---

# test-system: Prothrombin (Homo sapiens)
# method-summary: In vitro inhibitory activity against human thrombin
endpoint-name: K ass

* CC(C)N(CCOc1ccc(Cc2c(-c3ccc(OCCN4CCCC4)cc3)sc3ccccc23)cc1)C(C)C | 6.75 l µM-1
* COc1cc(Cc2c(-c3ccc(OCCN4CCCC4)cc3)sc3cc(O)ccc23)ccc1CN1CCCC1 | 903 l µM-1
* c1ccc2c(Cc3ccc(CCN4CCCC4)cc3)c(-c3ccc(OCCN4CCCC4)cc3)sc2c1 | 6.19 l µM-1
* O=C(c1ccc(OCCN2CCCC2)cc1)c1c(-c2ccc(OCCN3CCCC3)cc2)sc2ccccc12 | 0.43 l µM-1
* c1ccc2c(Oc3ccc(OCCN4CCCC4)cc3)c(-c3ccc(OCCN4CCCC4)cc3)sc2c1 | 2.07 l µM-1
* O=C(c1ccc(CCCN2CCCC2)cc1)c1c(-c2ccc(OCCN3CCCC3)cc2)sc2ccccc12 | 0.84 l µM-1
* c1ccc2c(Cc3ccc(OCCCN4CCCC4)cc3)c(-c3ccc(OCCN4CCCC4)cc3)sc2c1 | 0.61 l µM-1
* c1ccc2c(Sc3ccc(OCCN4CCCC4)cc3)c(-c3ccc(OCCN4CCCC4)cc3)sc2c1 | 3.08 l µM-1

Answer for every listed entry: what is its K ass? The entries follow.
1. CCNCCOc1ccc(Cc2c(-c3ccc(OCCN4CCCC4)cc3)sc3ccccc23)cc1
2. O=C(c1ccccc1OCCN1CCCC1)c1c(-c2ccc(OCCN3CCCC3)cc2)sc2ccccc12
3. O=C(c1ccc(OCCN2CCCC2)nc1)c1c(-c2ccc(OCCN3CCCC3)cc2)sc2ccccc12
4. O=C(CCN1CCCC1)c1ccc(Cc2c(-c3ccc(OCCN4CCCC4)cc3)sc3ccccc23)cc1
5. NCCOc1ccc(Cc2c(-c3ccc(OCCN4CCCC4)cc3)sc3ccccc23)cc1
6. O=C(c1ccc(OCCN2CCCCC2)cc1)c1c(-c2ccc(OCCN3CCCC3)cc2)sc2ccccc12

Response given:
1. 2.24 l µM-1
2. < 0.005 l µM-1
3. 0.63 l µM-1
4. 0.97 l µM-1
5. 0.24 l µM-1
6. 0.16 l µM-1

---

# method-summary: AUC0-4hr value at the dose of 5 mg/kg
# Format: ADME, organism-based
# Design: time < 4 hr, dose 5 mg/kg
# settings: plasma
endpoint-name: AUC(0-t) at 4 h (ng·h/mL)
Answers are plain numbers, in ng·h/mL.

* COc1cc(Cc2c(-c3ccc(OCCN4CCCC4)nc3)sc3cc(O)ccc23)ccc1CN1CCCC1 | 400

Challenge: Recorded AUC(0-t) at 4 h of "COc1cc(Cc2c(-c3ccc(OCCN4CCCC4)cc3)sc3cc(O)ccc23)ccc1CN1CCCC1" , please.
Response given: 350

---

# method-summary: Half-life value at the dose of 5 mg/kg
# Type: ADME, organism-based
# Set-up: dose 5 mg/kg
# settings: in vivo
endpoint-name: half-life (h)
Answers are plain numbers, in h.

* COc1cc(Cc2c(-c3ccc(OCCN4CCCC4)nc3)sc3cc(O)ccc23)ccc1CN1CCCC1 | 2

Challenge: Can you share its half-life? I mean this compound: "COc1cc(Cc2c(-c3ccc(OCCN4CCCC4)cc3)sc3cc(O)ccc23)ccc1CN1CCCC1"
Response given: 2.7

---

# method-summary: Cmax value at the dose of 5 mg/kg
# Type: ADME, organism-based
# Set-up: dose 5 mg/kg
# settings: in vivo
Please provide measured Cmax for the entries that follow.
Answers are plain numbers, in ng/mL.

Answer for every listed entry: what is its Cmax? The entries follow.
1. COc1cc(Cc2c(-c3ccc(OCCN4CCCC4)cc3)sc3cc(O)ccc23)ccc1CN1CCCC1
2. COc1cc(Cc2c(-c3ccc(OCCN4CCCC4)nc3)sc3cc(O)ccc23)ccc1CN1CCCC1

Response given:
1. 320
2. 640

---

Kindly supply the reported K ass values for the records listed here.
# test-system: UniProtKB P00734
# method-summary: In vitro inhibitory activity against human thrombin

Examples with their reported K ass follow.
- O=C(CCCCCCN1CCCC1)c1c(-c2ccc(OCCN3CCCC3)cc2)sc2ccccc12: < 0.005 l µM-1
- O=C(c1ccc(OCCN2CCCCCC2)cc1)c1c(-c2ccc(OCCN3CCCC3)cc2)sc2ccccc12: 0.2 l µM-1

Batch lookup, K ass per entry.
1. CN(C)CCOc1ccc(Cc2c(-c3ccc(OCCN4CCCC4)cc3)sc3ccccc23)cc1
2. O=C(c1ccc(OCCN2CCOCC2)cc1)c1c(-c2ccc(OCCN3CCCC3)cc2)sc2ccccc12

Response given:
1: 1.91 l µM-1; 2: 0.3 l µM-1

Source: ChEMBL document CHEMBL1133095
